Tested on: Raji
ASSAY_REMARKS: FACS analysis on PI stained tumor cells, G2/M arrest
Type: cell-based
CONDITION_CONTEXT: Homo sapiens; Raji (Lymphoma), 24 hrs; read-out: FACS Analysis G2M-Arrest EC50
Protocol: FACS Analysis on PI Stained Tumor Cells […] Data analysis: Analysis of the DNA content of the cells can be performed using a FACS analyzer equipped with an argon laser (500 mW, emission 488 nm) and the use of the DNA Cell Quest analysis software (Beckton Dickinson). The logarithmic PI fluorescence is determined in a band-pass filter (Beckton Dickinson 585/43). […]
PROPERTY_MEASURED: pEC50
Please report pEC50 as the negative decimal logarithm of the molar concentration, giving only the number.

What the record says about `CC[C@@H]1C(=O)N(C)c2cnc(Nc3ccc(C(=O)NC4CCN(C)CC4)cc3OC)nc2N1C1CCCC1` : pEC50 is 7.70

---

Test system: BxPC-3
ASSAY_REMARKS: Alamar Blue cytotoxicity assay
Assay type: cell-based
CONDITION_CONTEXT: Homo sapiens; BxPC-3 (Pancreas), 72 h
PROPERTY_MEASURED: pEC50
Would you please state pEC50, meaning minus log10 of the concentration in mol/L, as a bare number?

pEC50 reported for this compound `CC[C@@H]1C(=O)N(C)c2cnc(Nc3ccc(C(=O)NC4CCN(C)CC4)cc3OC)nc2N1C1CCCC1` : 7.60

---

System: GRANTA-519
ASSAY_REMARKS: FACS analysis on PI stained tumor cells, G2/M arrest
Assay type: cell-based
CONDITION_CONTEXT: Homo sapiens; GRANTA-519 (Lymphoma), 24 hrs; read-out: FACS Analysis G2M-Arrest EC50
PROPERTY_MEASURED: pEC50
The quantity pEC50 is defined as the negative base-10 logarithm of the molar concentration.

Value of measured pEC50 for the entry `CC[C@@H]1C(=O)N(C)c2cnc(Nc3ccc(C(=O)NC4CCN(C)CC4)cc3OC)nc2N1C1CCCC1` : 7.92

---

Tested on: FaDu
ASSAY_REMARKS: Alamar Blue cytotoxicity assay
Format: cell-based
CONDITION_CONTEXT: Homo sapiens; FaDu (Head and Neck), 72 h
Excerpt: Alamar Blue™ Cytotoxicity Assays The Alamar Blue™ assay is designed to measure quantitatively the proliferation of cells by incorporating a fluorometric/colorimetric growth indicator based on the detection of metabolic activity. […]
PROPERTY_MEASURED: EC50 (nM)
State the answer as a number, implicitly in nM.

Summary for this compound, `CC[C@@H]1C(=O)N(C)c2cnc(Nc3ccc(C(=O)NC4CCN(C)CC4)cc3OC)nc2N1C1CCCC1` : EC50 is 6

---

Tested on: GRANTA-519
ASSAY_REMARKS: Alamar Blue cytotoxicity assay
Type: cell-based
CONDITION_CONTEXT: Homo sapiens; GRANTA-519 (Lymphoma), 72 h
PROPERTY_MEASURED: pEC50
pEC50 here is simply -log10 of the concentration when that concentration is written in mol/L.

Result for `CC[C@@H]1C(=O)N(C)c2cnc(Nc3ccc(C(=O)NC4CCN(C)CC4)cc3OC)nc2N1C1CCCC1` , tested on GRANTA-519, pEC50: 8.30

---

Test system: A549
ASSAY_REMARKS: Alamar Blue cytotoxicity assay
Format: cell-based
CONDITION_CONTEXT: Homo sapiens; A549 (Lung), 72 h
PROPERTY_MEASURED: EC50 (nM)
State the answer as a number, implicitly in nM.

The compound identified as `CC[C@@H]1C(=O)N(C)c2cnc(Nc3ccc(C(=O)NC4CCN(C)CC4)cc3OC)nc2N1C1CCCC1` registered its EC50 at 6

---

Tested on: PC-3
ASSAY_REMARKS: Alamar Blue cytotoxicity assay
Assay type: cell-based
CONDITION_CONTEXT: Homo sapiens; PC-3 (Prostate), 72 h
Description: Alamar Blue™ Cytotoxicity Assays The Alamar Blue™ assay is designed to measure quantitatively the proliferation of cells by incorporating a fluorometric/colorimetric growth indicator based on the detection of metabolic activity. […]
PROPERTY_MEASURED: pEC50
// scale note: pEC50 = -log10(conc_M); give the bare number

Given item `CC[C@@H]1C(=O)N(C)c2cnc(Nc3ccc(C(=O)NC4CCN(C)CC4)cc3OC)nc2N1C1CCCC1` , the value recorded as its pEC50 is 8.15

---

Test system: A549
ASSAY_REMARKS: FACS analysis on PI stained tumor cells, G2/M arrest
Assay type: cell-based
CONDITION_CONTEXT: Homo sapiens; A549 (Lung), 24 hrs; read-out: FACS Analysis G2M-Arrest EC50
PROPERTY_MEASURED: EC50

Recorded EC50 (compound `CC[C@@H]1C(=O)N(C)c2cnc(Nc3ccc(C(=O)NC4CCN(C)CC4)cc3OC)nc2N1C1CCCC1` ): 14 nM
